# testedTarget: T1, hAMY3R (human, UniProt P30988)
# T1 sequence 1: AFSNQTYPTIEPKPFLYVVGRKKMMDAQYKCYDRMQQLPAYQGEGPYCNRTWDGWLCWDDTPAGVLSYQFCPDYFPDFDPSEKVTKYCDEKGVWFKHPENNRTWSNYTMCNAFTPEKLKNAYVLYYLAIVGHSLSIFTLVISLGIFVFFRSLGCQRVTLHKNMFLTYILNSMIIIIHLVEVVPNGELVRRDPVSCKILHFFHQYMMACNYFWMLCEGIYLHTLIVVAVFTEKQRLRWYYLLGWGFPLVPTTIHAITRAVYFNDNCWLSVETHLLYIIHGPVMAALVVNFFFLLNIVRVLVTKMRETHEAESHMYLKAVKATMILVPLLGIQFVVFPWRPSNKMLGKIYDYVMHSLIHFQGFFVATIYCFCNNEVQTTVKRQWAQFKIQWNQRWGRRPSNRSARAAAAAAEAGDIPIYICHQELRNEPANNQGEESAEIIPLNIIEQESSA
# T1 sequence 2: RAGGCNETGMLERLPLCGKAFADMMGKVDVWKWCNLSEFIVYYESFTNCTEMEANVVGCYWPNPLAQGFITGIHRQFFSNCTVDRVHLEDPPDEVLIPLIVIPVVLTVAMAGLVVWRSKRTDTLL
# protocol: cell-based or functional assay
Bridge positions count the residues as written; N and C are the ends. Square brackets hold non-standard residues; d marks the D form. Ends that are not written are not given here. Hyp = O=C(O)[C@@H]1C[C@@H](O)CN1
In this section, each of the binders is paired with its reported hAMY3R EC50 (cAMP).
Please give a number only; it is taken to be in nM.

[[record]]
binder = "GCRFGTCTVQRLAHQIYQFTDKDKDNVAPRSKISPQGY [SEQ ID NO: 154]"
readoutname = "hAMY3R EC50 (cAMP)"
testresult = 0.042

[[record]]
binder = "GCRFGTCTVQRLAHQIYQFTDKDKDNVAPRSKVGPQGY [SEQ ID NO: 375]"
readoutname = "hAMY3R EC50 (cAMP)"
testresult = 0.022


Proceed to the following item.
Consider the binder GCRFGTCTVQRLAHQIYQFTDKFKDNVAPRSKISPQT[Hyp]-NH2 (disulfide 2-7 (inferred); ends not checked) [SEQ ID NO: 212] and give its recorded hAMY3R EC50 (cAMP).
0.153
